# Test system: field corn (Zea mays L., var. Dekalb 535, CORN)
# assay remarks: Post-emerge test, crop safety
# Assay type: in vivo
# experimental context: Rate 63 g ai/ha; rating scale 0-100 (0 no damage, 100 complete death); 14 days after application
property: Post-emerge phytotoxicity rating CORN (crop damage)
Answer field: number only, no words.

Worked cases, answers included:
molecule: CCCOC(=O)C(Cl)Cc1c(OC)c(Cl)cc(F)c1-n1c(=O)cc(C(F)(F)F)n(C)c1=O (single isomer, unassigned) [14-7]
endpoint value: 95

molecule: COc1c(Cl)cc(F)c(-n2c(=O)cc(C(F)(F)F)n(C)c2=O)c1CC(C)(Cl)C(=O)OC(C(F)(F)F)C(F)(F)F (stereo not shown) [14-46]
endpoint value: 95

Ask: Post-emerge phytotoxicity rating CORN (crop damage) lookup needed for CCCCCCOC(=O)C(Cl)Cc1c(OC)c(Cl)cc(F)c1-n1c(=O)cc(C(F)(F)F)n(C)c1=O (single isomer, unassigned) [14-12] , thanks.
Result: 30

Ask: Post-emerge phytotoxicity rating CORN (crop damage) lookup needed for CCOC(=O)C(C)(Cl)Cc1c(OC)c(Cl)cc(F)c1-n1c(=O)cc(C(F)(F)F)n(C)c1=O (stereo not shown) [14-34] , thanks.
Result: 80

Ask: GET /values?readout=Post-emerge phytotoxicity rating CORN (crop damage)&item= C#CCOC(=O)C(Cl)Cc1c(OC)c(Cl)cc(F)c1-n1c(=O)cc(C(F)(F)F)n(C)c1=O (single isomer, unassigned) [14-20]
Result: 0

Ask: Given the molecule COc1c(Cl)cc(F)c(-n2c(=O)cc(C(F)(F)F)n(C)c2=O)c1CC(Cl)C(=O)OCC(C)C (single isomer, unassigned) [14-15] , what is its reported Post-emerge phytotoxicity rating CORN (crop damage)?
Result: 20

Ask: For the molecule COc1c(Cl)cc(F)c(-n2c(=O)cc(C(F)(F)F)n(C)c2=O)c1CC(Cl)C(=O)OC(C)(C)C (stereo not shown) [14-18] , what Post-emerge phytotoxicity rating CORN (crop damage) is on record?
Result: 20

###

# System: field corn (Zea mays L., var. Dekalb 535, CORN)
# assay remarks: Post-emerge test, crop safety
# Type: in vivo
# experimental context: post-emerge, 63 g ai/ha, 14 days after application, rating scale 0-100
property: phytotoxicity rating CORN (crop damage)
Number, no unit, nothing else.

The cases that follow already have their phytotoxicity rating CORN (crop damage) on record.
compound: CCc1ccc(COC(=O)Nc2c(OC)c(Cl)cc(F)c2-n2c(=O)cc(C(F)(F)F)n(C)c2=O)cc1
phytotoxicity rating CORN (crop damage): 10
--
compound: CC(C)Oc1c(Cl)cc(F)c(-n2c(=O)cc(C(F)(F)F)n(C)c2=O)c1NC(=O)c1ccc2ccccc2c1
phytotoxicity rating CORN (crop damage): 10
--
compound: COc1c(Cl)cc(F)c(-n2c(=O)cc(C(F)(F)F)n(C)c2=O)c1NC(=O)OCc1cc(C)ccc1C
phytotoxicity rating CORN (crop damage): 40
--
compound: COc1c(Cl)cc(F)c(-n2c(=O)cc(C(F)(F)F)n(C)c2=O)c1NC(=O)OCc1ccc(Cl)c(Cl)c1
phytotoxicity rating CORN (crop damage): 20
--
compound: Cn1c(C(F)(F)F)cc(=O)n(-c2ccc(C(N)=S)cc2NC(=O)c2ccc3ccccc3c2)c1=O
phytotoxicity rating CORN (crop damage): 10
--
compound: Cc1ccc(-n2c(=O)cc(C(F)(F)F)n(C)c2=O)c(NC(=O)c2ccc3ccccc3c2)c1
phytotoxicity rating CORN (crop damage): 30
--
compound: COc1c(Cl)cc(F)c(-n2c(=O)cc(C(F)(F)F)n(C)c2=O)c1NC(=O)OCc1c(Cl)cccc1Cl
phytotoxicity rating CORN (crop damage): 35
--
compound: COc1c(Cl)cc(F)c(-n2c(=O)cc(C(F)(F)F)n(C)c2=O)c1NC(=O)Oc1c(C)cc(C)cc1C
phytotoxicity rating CORN (crop damage): 5
--
compound: Cc1cccc(C)c1OC(=O)Nc1c(C)c(Cl)cc(F)c1-n1c(=O)cc(C(F)(F)F)n(C)c1=O
phytotoxicity rating CORN (crop damage): 10
--
compound: COc1c(Cl)cc(F)c(-n2c(=O)cc(C(F)(F)F)n(C)c2=O)c1NC(=O)OCc1ccc(C(F)(F)F)cc1
phytotoxicity rating CORN (crop damage): 0

Ask: GET /values?readout=phytotoxicity rating CORN (crop damage)&item= `COc1c(Cl)ccc(-n2c(=O)cc(C(F)(F)F)n(C)c2=O)c1NC(=O)c1ccc2ccccc2c1`
Result: 15

Ask: What phytotoxicity rating CORN (crop damage) value was documented for this compound, COc1c(Cl)cc(F)c(-n2c(=O)cc(C(F)(F)F)n(C)c2=O)c1NC(=O)OC(C)c1ccccc1 (stereo not drawn) ?
Result: 30

Ask: Would you mind telling me what phytotoxicity rating CORN (crop damage) value was observed for `Cc1ccccc1COC(=O)Nc1c(C)c(Cl)cc(F)c1-n1c(=O)cc(C(F)(F)F)n(C)c1=O` ?
Result: 80

Ask: Fill in: phytotoxicity rating CORN (crop damage) of `COc1c(Cl)cc(F)c(-n2c(=O)cc(C(F)(F)F)n(C)c2=O)c1NC(=O)Oc1ccccc1C(C)(C)C` is ___
Result: 5

Ask: So what does the record say about phytotoxicity rating CORN (crop damage) for `COc1c(Cl)cc(F)c(-n2c(=O)cc(C(F)(F)F)n(C)c2=O)c1NC(=O)OCc1ccc(OC(F)(F)F)cc1` ?
Result: 10

Ask: Name the reported phytotoxicity rating CORN (crop damage) value associated with the compound `CCCCCC(=O)Nc1c(OC)c(Cl)cc(F)c1-n1c(=O)cc(C(F)(F)F)n(C)c1=O`
Result: 10
